Assay: in vitro
Conditions: dog
Each entry below lists one item and its recorded CC50 at 3 days value.
# number only, unit µM dropped from output

[[record]]
molecule = "N#Cc1nccc(N[C@@H]2CCC[C@H](Nc3nc(-c4c[nH]c5c(F)cc(F)cc45)ncc3F)C2)n1 [Compound 14]"
observed_property = "CC50 at 3 days"
measured_value = 3.15

[[record]]
molecule = "Cc1nc(-c2c[nH]c3c(F)cc(F)cc23)nc(N[C@@H]2CCC[C@H](Nc3cc(C(F)(F)F)nc(Cl)n3)C2)c1F [Compound 35]"
observed_property = "CC50 at 3 days"
measured_value = 0.89

[[record]]
molecule = "Nc1nc(N[C@H]2CCC[C@@H](Nc3nc(-c4c[nH]c5c(F)cc(F)cc45)ncc3F)C2)c2ccccc2n1 [Compound 13]"
observed_property = "CC50 at 3 days"
measured_value = 11.6

[[record]]
molecule = "Cc1cc(O[C@@H]2CCC[C@H](Nc3nc(-c4c[nH]c5c(F)cc(F)cc45)nc(C)c3F)C2)ncn1 [Compound 71]"
observed_property = "CC50 at 3 days"
measured_value = 2.2

[[record]]
molecule = "Fc1cc(F)c2[nH]cc(-c3ncc(F)c(N[C@H]4CCC[C@@H](Nc5ccnc(Cl)n5)C4)n3)c2c1 [Compound 16]"
observed_property = "CC50 at 3 days"
measured_value = 2.17

[[record]]
molecule = "COc1nccc(N[C@@H]2CCC[C@H](Nc3nc(-c4c[nH]c5c(F)cc(F)cc45)ncc3F)C2)n1 [Compound 15]"
observed_property = "CC50 at 3 days"
measured_value = 3.19


Exam item: Please report the measured CC50 at 3 days for Cc1nc(-c2c[nH]c3c(F)cc(F)cc23)nc(N[C@H]2CCC[C@@H](Nc3ncnc4nc[nH]c34)C2)c1F [Compound 47]
Marked response: 11

Exam item: Please report the measured CC50 at 3 days for Cc1nccc(N[C@H]2CCC[C@@H](Nc3nc(-c4c[nH]c5c(F)cc(F)cc45)ncc3F)C2)n1 [Compound 10]
Marked response: 2.88
